Value type: melting point

Solved cases (2 shown):
O=C(O)C(=O)c1cn(Cc2ccccc2)c2c(-c3ccc(F)c(Cl)c3)cccc12: 153 to 156 °C
O=C(O)C(=O)c1cn(Cc2ccccc2)c2cc(-c3ccc(C(F)(F)F)cc3)ccc12: 223 to 224 °C (dec.)

For record Cn1cc(C(=O)O)c2ccc(-c3ccc(C(C)(C)C)cc3)cc21 the listed melting point is 236 to 238 °C (dec.)

The compound listed as CC(=O)c1ccc(-c2ccc3c(c2)c(C(=O)C(=O)O)cn3Cc2ccccc2)cc1 shows melting point equal to 213 to 214 °C (dec.)

Reported melting point for Cc1ccc(Cn2cc(C(=O)C(=O)O)c3cc(-c4ccc(OC(F)(F)F)cc4)ccc32)cc1 was 192 to 193 °C

Reported melting point for Cc1ccccc1-c1ccc2c(c1)c(C(=O)C(=O)O)cn2Cc1ccc(C(C)(C)C)cc1 was 97 to 98 °C

// melting point value for O=C(O)C(=O)c1cn(Cc2ccccc2)c2ccc(-c3cc(C(F)(F)F)cc(C(F)(F)F)c3)cc12 : 206 to 207 °C

get_value(item= O=C(O)C(=O)c1cn(Cc2ccccc2)c2cc(-c3cccc(Cl)c3)ccc12 , readout=melting point) returns 186 to 188 °C
